# studySystem: p47 (endogenous) (human (endogenous in U2OS), UniProt Q9UNZ2)
# Sequence (Q9UNZ2 whole entry, the tested form may be a part): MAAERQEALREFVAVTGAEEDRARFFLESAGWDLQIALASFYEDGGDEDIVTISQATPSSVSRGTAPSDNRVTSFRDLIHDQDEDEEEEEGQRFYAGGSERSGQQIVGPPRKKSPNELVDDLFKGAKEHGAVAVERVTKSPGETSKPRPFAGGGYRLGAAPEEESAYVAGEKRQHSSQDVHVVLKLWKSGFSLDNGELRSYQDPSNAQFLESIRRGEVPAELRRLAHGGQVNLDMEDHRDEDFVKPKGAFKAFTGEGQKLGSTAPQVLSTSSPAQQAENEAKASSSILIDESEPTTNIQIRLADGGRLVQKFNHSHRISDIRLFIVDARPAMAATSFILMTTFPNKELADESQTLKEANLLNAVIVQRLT
# assayDetails: co-IP; co-IP of p47 from lysates of U2OS cells transfected with plasmids for HA-tagged antibody fragments; p47-containing complexes captured and blotted
# assayContext: partners not purified
reportedProperty: binding result

scFv-A06 with C-terminal HA tag, expressed in cells (scFv, V domains shown) VH: QVQLVESGGGLVQPGGSLRLSCAASGFNISSYSMHWVRQAPGKGLEWVASISSSYGSTYYADSVKGRFTISADTSKNTAYLQMNSLRAEDTAVYYCARSDWYYGDAWGVPYYAFDYWGQGTLVTVSS VL: DIQMTQSPSSLSASVGDRVTITCRASQSVGSALAWYQQKPGKAPKLLIYSASSLYSGVPSRFSGSRSGTDFTLTISSLQPEDFATYYCQQSWFLITFGQGTKVEIK    binds
scFab-NLS A06 with C-terminal HA tag, expressed in cells (Fab, V domains shown) VH: EVQLVESGGGLVQPGGSLRLSCAASGFNISSYSMHWVRQAPGKGLEWVASISSSYGSTYYADSVKGRFTISADTSKNTAYLQMNSLRAEDTAVYYCARSDWYYGDAWGVPYYAFDYWGQGTLVTVSS VL: DIQMTQSPSSLSASVGDRVTITCRASQSVGSALAWYQQKPGKAPKLLIYSASSLYSGVPSRFSGSRSGTDFTLTISSLQPEDFATYYCQQSWFLITFGQGTKVEIK    binds
scFab-E04 with C-terminal HA tag, expressed in cells (Fab, V domains shown) VH: EVQLVESGGGLVQPGGSLRLSCAASGFNFSSYSIHWVRQAPGKGLEWVASISPYYGSTYYADSVKGRFTISADTSKNTAYLQMNSLRAEDTAVYYCARYKYYMSGRYTWALDYWGQGTLVTVSS VL: DIQMTQSPSSLSASVGDRVTITCRASQSVSSAVAWYQQKPGKAPKLLIYSASSLYSGVPSRFSGSRSGTDFTLTISSLQPEDFATYYCQQEFFVPFTFGQGTKVEIK    binds

Hey, just so you know, these numbers are from paper PMC9335864.
